Recorded values, source patent US20260042834A1.

Molecular target: T1, human UCN1 peptide (human, UniProt P55089 83-122)
T1 peptide (looked up): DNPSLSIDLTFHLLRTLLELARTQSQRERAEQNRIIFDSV
Assay: cell-based or functional assay
Endpoint name: CHO-CRE-hCRHR1 1 nM hUCH1 IC50

If you can, please state the reported CHO-CRE-hCRHR1 1 nM hUCH1 IC50 value of PR302341-60 (antibody, human IgG1, kappa, V domains shown, Humanized, PTM-removed variant of PR302341) VH: QVQLVQSGAEVKKPGASVKVSCKASGYTFTDYFMKWVRQAPGQRLEWMGVINPNQGDIFYNQKFKGRVTITRDTSASTAYMELSSLRSEDTAVYYCARGTDRALFAYWGQGTLVTVSS VL: DVVMTQSPLSLPVTLGQPASISCRSGQSIVHSDANTYLEWYQQRPGQSPRLLIYKVSNRFSGVPDRFSGSGSGTDFTLKISRVEAEDLGVYYCFQGSHIPWTFGGGTKVEIKR .
71 nM

Repeat for the following binder: PR302341 (antibody, human IgG1, kappa, V domains shown, Series 10; mouse variable domains with human IgG1 wildtype Fc) VH: EVQLQQSGPELVKPGASVKMSCKASGYTFTDYFMKWVKQSHGESLEWIGVINPNNGDIFYNQKFKGKATLTVDKSSSTAFMQLNSLTSEDSAVYSCARGTDRALFAYWGQGTLVAVSA VL: DVLMTQTPLSLPVSLGDQASISCRSGQSIVHSDGNTYLEWYLQRPGQSPRLLIYKVSNRFSGVPDRFSGSGSGTDFTLKISRVGAEDLGIYYCFQGSHIPWTFGGGTKLEVKR
19 nM

Repeat for the following binder: PR303394 (antibody, human IgG1, kappa, V domains shown, also called analog of CTRND05) VH: EVQLQQSGPELVKPGVSMKISCKASGYSFTDSTMNWVKQSHGKNLEWIGLIHPDNGGTIYNQKFKGKATLTVHKSSSTAYMELLSLTSEDSAVYYCANGFAYWGQGTLVTVSA VL: DVVMTQTPLSLPVSLGDQASISCRSSQSLLHSNGNTYLHWYLQKPGQSPELLIYKVSNRFSGVPDRFSGSGSGTDFTLKISRVEAEDLGVYFCSQSTHVPLTFGAGTKLELKR
42.5 nM
